Molecular target: T1, TNFR1 (Homo sapiens, UniProt P19438)
T1 chain: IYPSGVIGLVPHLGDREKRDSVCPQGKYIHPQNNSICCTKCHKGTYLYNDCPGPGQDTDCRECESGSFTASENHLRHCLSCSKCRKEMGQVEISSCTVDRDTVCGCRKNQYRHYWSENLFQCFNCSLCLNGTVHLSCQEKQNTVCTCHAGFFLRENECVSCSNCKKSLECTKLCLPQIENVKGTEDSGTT
Assay: yeast display SC50
endpoint name: apparent Kd (screen) (nM)

>>> result_value("F31C (designed binder) MTLQELLREEALRRAEAEAFRYALELLAEKCPEQKEYLLDLAEEIESQIRSLSGVDVEDVRKFLDKEWAWVKELLAEHPAELAEVEAARAARLAELRAEVEAKVAA")
0.653

a: E86W (designed binder) MTLQELLREEALRRAEAEAFRYALELLAEKFPEQKEYLLDLAEEIESQIRSLSGVDVEDVRKFLDKEWAWVKELLAEHPAELAEVWAARAARLAELRAEVEAKVAA
b: K30P (designed binder) MTLQELLREEALRRAEAEAFRYALELLAEPFPEQKEYLLDLAEEIESQIRSLSGVDVEDVRKFLDKEWAWVKELLAEHPAELAEVEAARAARLAELRAEVEAKVAA
c: D40H (designed binder) MTLQELLREEALRRAEAEAFRYALELLAEKFPEQKEYLLHLAEEIESQIRSLSGVDVEDVRKFLDKEWAWVKELLAEHPAELAEVEAARAARLAELRAEVEAKVAA
Query block: Rank descending by apparent Kd (screen). State the ranking by listing the labels in the requested order.
Result block: c, a, b
(c: 7.78 nM, a: 2.73 nM, b: 0.653 nM)
